B1: Nse5-LexA (wild type) [S. cerevisiae] / Nse6-AD [S. cerevisiae] (parent complex)
chain 1: MDGALINSVLYVSPRNGAHYFVELTEKHLLAFEMLNSMCLLENYDHVLLFLECQFGKSHNLAVIPFDIILVLFTLSTLSEYYKEPILRANDPYNTSRETLSRRALKLLQKYLAILKEFDSEQYNLYDLELLRCQFFLAIDTLTPKKQKWGFDRFRRTKSESGVTYRQNASVDPELDQAKTFKNPYRSYISCLEQRNTILGNRLLNLKLNEPGEFINMILWTLSNSLQESTPLFLSSHEIWMPLLEILIDLFSCRQDYFIQHEVAQNVSKSLFVQRLSESPLAVFFESLNTRNFANRFSEYVFLNCDYKLPSDNYATPVHPVYNGENTIVDTYIPTIKCSPLYKSQKSLALRRKLIGSCFKLLLRVPDGHRLITPRIVADDVIQGISRTLASFNDILQFKKFFMTENLSQESYFIPLLAEGTLSEILKDTQECVVILTLVENLSDGVSFCNEVIGLVKSKCFAFTEQCSQASYEEAVLNIEKCDVCLLVLLRYLLHLIGTEAILDAKEQLEMLHAIEKNDSGRRQWAKALNLGNDPPLLYPIVSQMFGVHDKSVIIE
chain 2: MGSVNSSPNEEFETVPDSQISGFDSPLIPTSVGSYFRDDDDDEKVHPNFISDPENDSLNSDEEFSSLENSDLNLSGAKAESGDDFDPILKRTIISKRKAPSNNEDEEIVKTPRKLVNYVPLKIFNLGDSFDDTITTTVAKLQDLKKEILDSPRSNKSIVITSNTVAKSELQKSIKFSGSIPEIYLDVVTKETISDKYKDWHFISKNCHYEQLMDLEMKDTAYSFLFGSSRSQGKVPEFVHLKCPSITNLLVLFGVNQEKCNSLKINYEKKENSRYDNLCTIFPVNKMLKFLMYFYSDDDNDDVREFFLKAFICLILDRKVFNAMESDHRLCFKVLELFNEAHFINSYFEIVDKNDFFLHYRLLQIFPHLQSALLRRRFSEKQGRTETIQQNIIKEFNEFFDCKNYKNLLYFILTMYGSKFIPFGPKCQVTEYFKDCILDISNETTNDVEISILKGILNLFSKIR

variants of: B1; assay: yeast two-hybrid (β-galactosidase); gal (induced) bar; parent: 2.45e+03
measured.attribute: response

Please give the documented response of chain 1 H319Y
2070 β-galactosidase activity units

Give the measured response for chain 1 Y111H
2170 β-galactosidase activity units

Please report response for the following variant: chain 1 N183D
2140 β-galactosidase activity units

Identify measured response associated with chain 1 Y123H
2190 β-galactosidase activity units
